# target: UniProt:Q13547
# Sequence (Q13547 whole entry): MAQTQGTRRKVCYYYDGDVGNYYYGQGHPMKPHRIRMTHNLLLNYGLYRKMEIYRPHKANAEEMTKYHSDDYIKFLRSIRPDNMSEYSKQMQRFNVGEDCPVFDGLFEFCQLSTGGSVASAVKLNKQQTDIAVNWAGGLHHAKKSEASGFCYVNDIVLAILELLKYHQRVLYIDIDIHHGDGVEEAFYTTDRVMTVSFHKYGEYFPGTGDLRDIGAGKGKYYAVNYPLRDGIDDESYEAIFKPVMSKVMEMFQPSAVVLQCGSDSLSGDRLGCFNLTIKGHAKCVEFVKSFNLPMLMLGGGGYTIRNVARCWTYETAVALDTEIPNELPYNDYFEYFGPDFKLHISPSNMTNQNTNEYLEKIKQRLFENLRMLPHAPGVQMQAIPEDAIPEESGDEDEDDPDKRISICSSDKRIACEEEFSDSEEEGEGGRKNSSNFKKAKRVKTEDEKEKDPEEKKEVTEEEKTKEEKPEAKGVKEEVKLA
# test description: Inhibition of human HDAC1 using human HeLa cell nuclear extract at 1 uM measured after 60 mins by fluorescence assay
# Type: subcellular, Nucleus
pIC50: −log10 of the molar value.
observation type: pIC50

[ask] Fill in reported pIC50 for this entry: Cc1noc(C)c1-c1ccc2c(c1)c(CCc1ccc(F)cc1)cn2CCCCCC(=O)NO
[reply] 6.59

[ask] Fill in reported pIC50 for this entry: Cc1noc(C)c1-c1ccc2c(c1)c(Cc1ccccc1)cn2CCCCCCC(=O)NO
[reply] 6.75

[ask] Fill in reported pIC50 for this entry: Cc1noc(C)c1-c1ccc2c(c1)c(Cc1ccc(F)cc1)cn2CCCCCCC(=O)NO
[reply] 6.74

[ask] Fill in reported pIC50 for this entry: Cc1ccccc1Cc1cn(CCCCCCC(=O)NO)c2ccc(-c3c(C)noc3C)cc12
[reply] 6.66

a. Cc1cccc(Cc2cn(CCCCCC(=O)NO)c3ccc(-c4c(C)noc4C)cc23)c1
b. Cc1ccc(Cc2cn(CCCCCCC(=O)NO)c3ccc(-c4c(C)noc4C)cc23)cc1
c. Cc1noc(C)c1-c1ccc2c(c1)c(Cc1cccc(C(F)(F)F)c1)cn2CCCCCCC(=O)NO
[ask] Sort low-to-high on pIC50, please. Output the labels ranked as instructed.
[reply] b, a, c

The measurements presented in this section are drawn from ChEMBL document CHEMBL5233233.
